Cited source: the NIST ThermoML archive (doi:10.1016/j.jct.2013.09.028)

Assay: refractive index (Na D-line) (dimensionless)
Details: 333.15 K; 101.33 kPa; Liquid; Standard Abbe refractometry
value_kind: refractive index
Give bare numbers.

(Q) // lookup refractive index for `CCCCCC[n+]1cc(C)cc(C)c1C.O=S(=O)([N-]S(=O)(=O)C(F)(F)F)C(F)(F)F`
(A) 1.45357

(Q) // lookup refractive index for `CCCCCC[n+]1cc(C)cc(C)c1CCCCC.O=S(=O)([N-]S(=O)(=O)C(F)(F)F)C(F)(F)F`
(A) 1.4493

(Q) // lookup refractive index for `CCCCCc1c(C)cc(C)c[n+]1CC.O=S(=O)([N-]S(=O)(=O)C(F)(F)F)C(F)(F)F`
(A) 1.44979

Further cases:
(Q) // lookup refractive index for `CCCCCc1c(C)cc(C)c[n+]1CCCC.O=S(=O)([N-]S(=O)(=O)C(F)(F)F)C(F)(F)F`
(A) 1.44902

###

Details: 343.15 K; 101.33 kPa; Liquid; Sing-around technique in a fixed-path interferometer
What speed of sound was measured for each of the following?
Give bare numbers, in m/s.

Example entries and their recorded answers appear below.
(Q) // lookup speed of sound for `CCCCCC[n+]1cc(C)cc(C)c1CCCCC.O=S(=O)([N-]S(=O)(=O)C(F)(F)F)C(F)(F)F`
(A) 1176

(Q) // lookup speed of sound for `CCCCCC[n+]1cc(C)cc(C)c1C.O=S(=O)([N-]S(=O)(=O)C(F)(F)F)C(F)(F)F`
(A) 1184

(Q) // lookup speed of sound for `CCCCCc1c(C)cc(C)c[n+]1CC.O=S(=O)([N-]S(=O)(=O)C(F)(F)F)C(F)(F)F`
(A) 1198

Turning to the following molecule.
(Q) // lookup speed of sound for `CCCCCc1c(C)cc(C)c[n+]1CCCC.O=S(=O)([N-]S(=O)(=O)C(F)(F)F)C(F)(F)F`
(A) 1179

###

What mass density was measured for each of the following?
Details: 318.15 K; 101.33 kPa; Liquid; Vibrating tube method
± gives the expanded uncertainty stated by the source.

Example entries and their recorded answers appear below.
(Q) // lookup mass density for `CCCCCC[n+]1cc(C)cc(C)c1CCCCC.O=S(=O)([N-]S(=O)(=O)C(F)(F)F)C(F)(F)F`
(A) 1236.71 ± 0.43 kg/m3

(Q) // lookup mass density for `CCCCCC[n+]1cc(C)cc(C)c1C.O=S(=O)([N-]S(=O)(=O)C(F)(F)F)C(F)(F)F`
(A) 1318.83 ± 0.5 kg/m3

(Q) // lookup mass density for `CCCCCc1c(C)cc(C)c[n+]1CC.O=S(=O)([N-]S(=O)(=O)C(F)(F)F)C(F)(F)F`
(A) 1306.53 ± 0.49 kg/m3

Further cases:
(Q) // lookup mass density for `CCCCCc1c(C)cc(C)c[n+]1CCCC.O=S(=O)([N-]S(=O)(=O)C(F)(F)F)C(F)(F)F`
(A) 1271.04 ± 0.46 kg/m3

###

What speed of sound was measured for each of the following?
Details: 333.15 K; 101.33 kPa; Liquid; Sing-around technique in a fixed-path interferometer
± gives the expanded uncertainty stated by the source.
Numeric answer plus unit only.

Example entries and their recorded answers appear below.
(Q) // lookup speed of sound for `CCCCCC[n+]1cc(C)cc(C)c1CCCCC.O=S(=O)([N-]S(=O)(=O)C(F)(F)F)C(F)(F)F`
(A) 1201 ± 2 m/s

(Q) // lookup speed of sound for `CCCCCc1c(C)cc(C)c[n+]1CCCC.O=S(=O)([N-]S(=O)(=O)C(F)(F)F)C(F)(F)F`
(A) 1203 ± 2 m/s

(Q) // lookup speed of sound for `CCCCCC[n+]1cc(C)cc(C)c1C.O=S(=O)([N-]S(=O)(=O)C(F)(F)F)C(F)(F)F`
(A) 1206 ± 2 m/s

Turning to the following molecule.
(Q) // lookup speed of sound for `CCCCCc1c(C)cc(C)c[n+]1CC.O=S(=O)([N-]S(=O)(=O)C(F)(F)F)C(F)(F)F`
(A) 1221 ± 2 m/s
